Test System: human DGKζ (Homo sapiens)
Construct: TVMV protease cleavage site (C); Hexa-His (C); made in house; host or cells: Sf9 insect cells (baculovirus, Bac-to-Bac)
Sequence (Q13574 with tags, fused parts or gaps isoform Q13574-4): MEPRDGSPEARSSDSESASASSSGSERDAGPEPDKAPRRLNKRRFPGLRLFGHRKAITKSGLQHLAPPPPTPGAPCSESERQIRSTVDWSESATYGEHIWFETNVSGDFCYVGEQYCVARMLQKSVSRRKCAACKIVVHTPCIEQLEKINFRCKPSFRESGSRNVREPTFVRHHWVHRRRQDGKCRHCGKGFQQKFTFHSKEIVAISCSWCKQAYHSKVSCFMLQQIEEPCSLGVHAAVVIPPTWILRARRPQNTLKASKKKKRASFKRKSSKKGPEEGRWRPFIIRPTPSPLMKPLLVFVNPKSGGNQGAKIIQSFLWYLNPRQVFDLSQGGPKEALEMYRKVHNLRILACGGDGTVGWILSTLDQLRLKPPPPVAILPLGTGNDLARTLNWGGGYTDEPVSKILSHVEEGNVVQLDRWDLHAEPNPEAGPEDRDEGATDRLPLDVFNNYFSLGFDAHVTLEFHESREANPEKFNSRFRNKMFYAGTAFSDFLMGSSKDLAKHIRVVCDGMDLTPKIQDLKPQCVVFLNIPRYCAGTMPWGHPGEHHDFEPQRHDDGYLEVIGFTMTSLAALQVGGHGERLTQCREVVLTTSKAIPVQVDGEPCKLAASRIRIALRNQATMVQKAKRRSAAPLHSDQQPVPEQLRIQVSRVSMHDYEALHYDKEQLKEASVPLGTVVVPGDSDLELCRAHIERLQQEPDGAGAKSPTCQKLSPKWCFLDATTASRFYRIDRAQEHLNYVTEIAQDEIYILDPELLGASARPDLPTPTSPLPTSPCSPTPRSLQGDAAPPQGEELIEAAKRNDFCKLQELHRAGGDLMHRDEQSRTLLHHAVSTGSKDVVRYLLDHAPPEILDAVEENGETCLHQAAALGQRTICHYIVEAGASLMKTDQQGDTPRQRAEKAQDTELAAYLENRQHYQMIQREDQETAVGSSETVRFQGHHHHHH
Test Protocol: DGKζ LIPGLO assay (extruded liposome substrate), in vitro DGK inhibition
Format: biochemical
Experimental Context: liposome (LIPGLO) assay; read-out: DGKz LIPGLO IC50
// reported IC50 for each item listed
Measured Parameter: IC50 (nM)

1) CC(c1ccc2c(c1)OCCO2)N1C[C@H](C)N(c2cc(=O)n(C)c3ccc(C#N)nc23)C[C@H]1C (single isomer, unassigned) [Example 1258]	15
2) C[C@@H]1CN(c2cc(=O)n(C)c3ccc(C#N)nc23)[C@@H](C)CN1Cc1nnnn1C1CC1	44000
3) COC[C@@H]1CN(c2cc(=O)n(C)c3ccc(C#N)nc23)[C@@H](C)CN1C(c1ccc(F)cc1)c1ccc(C#N)cc1 (single isomer, unassigned) [Example 1157]	700
4) C[C@@H]1CN(c2c(Cl)c(=O)n(C)c3ccc(C#N)nc23)[C@@H](C)CN1C(c1ccccc1)c1ccc(F)cc1 (single isomer, unassigned) [Example 217]	140000
5) CC[C@H]1CN(C(c2ccc(F)cc2)c2cc(C3CC3)on2)[C@H](CC)CN1c1cc(=O)n(C)c2ccc(C#N)nc12 (single isomer, unassigned) [Example 1075]	27
6) CCC(c1ccc(OC(F)(F)F)cc1F)N1C[C@H](C)N(c2cc(=O)n(C)c3ccc(C#N)nc23)C[C@H]1CC (single isomer, unassigned) [Example 420]	250
7) Cn1c(=O)cc(N2CCN(C(c3ccc(F)cc3)c3ccc(F)cc3)C(C(C)(C)O)C2)c2nc(C#N)ccc21 (single isomer, unassigned) [Example 79]	240000
8) CC(c1ccc(C2(C#N)CC2)cc1)N1C[C@H](C)N(c2cc(=O)n(C)c3ccc(C#N)nc23)C[C@H]1C (stereo partly drawn) [Example 1254]	340
9) C[C@@H]1CN(c2cc(=O)n(C)c3ccc(C#N)nc23)[C@@H](C)CN1Cc1ccc(C(C)(C)C)cc1	6600
10) COc1cc(F)ccc1C(C)N1C[C@H](C)N(c2cc(=O)n(C)c3ccc(C#N)nc23)C[C@H]1C (single isomer, unassigned) [Example 1236]	43
11) CC(c1ccc(OC(F)(F)F)cc1)N1C[C@H](C)N(c2cc(=O)n(C)c3ccc(C#N)nc23)C[C@H]1CC#N (single isomer, unassigned) [Example 1412]	1700
12) CCC(c1ccc(OCC2CC2)cc1)N1C[C@H](C)N(c2cc(=O)n(C)c3ccc(C#N)nc23)C[C@H]1C (stereo partly drawn) [Example 1439]	650

###

Measured pIC50 by item
Test System: human DGKα (Homo sapiens, UniProt P23743)
Construct: TVMV protease cleavage site (C); Hexa-His (C); made in house; host or cells: Sf9 insect cells (baculovirus, Bac-to-Bac)
Sequence (P23743 with tags, fused parts or gaps): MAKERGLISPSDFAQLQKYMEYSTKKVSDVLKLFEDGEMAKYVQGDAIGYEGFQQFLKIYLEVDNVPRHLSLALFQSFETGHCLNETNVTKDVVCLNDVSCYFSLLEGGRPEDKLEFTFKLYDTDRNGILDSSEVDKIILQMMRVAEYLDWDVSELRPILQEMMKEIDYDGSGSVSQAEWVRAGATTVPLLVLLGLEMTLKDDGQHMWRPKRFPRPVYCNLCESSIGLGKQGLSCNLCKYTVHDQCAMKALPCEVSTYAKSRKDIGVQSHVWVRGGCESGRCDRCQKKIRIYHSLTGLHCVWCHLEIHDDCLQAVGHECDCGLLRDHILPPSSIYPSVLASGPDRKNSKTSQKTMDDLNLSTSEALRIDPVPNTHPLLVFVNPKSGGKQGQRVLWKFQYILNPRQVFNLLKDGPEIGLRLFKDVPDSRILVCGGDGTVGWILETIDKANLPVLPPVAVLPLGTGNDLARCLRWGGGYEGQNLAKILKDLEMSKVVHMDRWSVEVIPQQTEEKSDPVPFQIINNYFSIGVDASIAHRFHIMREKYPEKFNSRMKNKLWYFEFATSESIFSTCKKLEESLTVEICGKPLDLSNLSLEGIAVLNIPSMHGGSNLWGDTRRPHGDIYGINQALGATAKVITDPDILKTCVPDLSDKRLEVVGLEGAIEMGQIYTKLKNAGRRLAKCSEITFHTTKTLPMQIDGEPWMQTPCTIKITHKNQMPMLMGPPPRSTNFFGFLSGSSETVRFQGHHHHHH
Test Protocol: DGKα LIPGLO assay (extruded liposome substrate), in vitro DGK inhibition
Format: biochemical
Experimental Context: liposome (LIPGLO) assay; read-out: DGKa LIPGLO IC50
pIC50: −log10 of the molar value.
Measured Parameter: pIC50

1. CC[C@H]1CN(C(C)c2ccc(F)cc2)[C@H](CC)CN1c1cc(=O)n(C)c2ccc(C#N)nc12 (single isomer, unassigned) [Example 1050]	6.29
2. C[C@@H]1CN(c2cc(=O)n(C)c3ccc(C#N)nc23)[C@@H](C)CN1C(c1ccc(F)cc1)C(F)(F)F (single isomer, unassigned) [Example 582]	6.36
3. CC[C@H]1CN(C(C)c2ccc(OC(F)F)cc2)[C@H](CC)CN1c1cc(=O)n(C)c2ccc(C#N)nc12 (single isomer, unassigned) [Example 1374]	6.54
4. Cc1ccnc(C(c2ccc(Cl)cc2)N2C[C@H](C)N(c3cc(=O)n(C)c4ccc(C#N)nc34)C[C@H]2C)c1 (single isomer, unassigned) [Example 364]	5.80
5. Cn1c(=O)cc(N2CCN(C(c3ccc(F)cc3)c3ccc(F)cc3)C(C(=O)NC3CC3)C2)c2nc(C#N)ccc21 (racemic) [Example 46]	3.62
6. C[C@@H]1CN(c2cc(=O)n(C)c3ccc(C#N)nc23)[C@@H](C)CN1C(c1ccc(F)cc1)c1ccc(Cl)cc1 (single isomer, unassigned) [Example 302]	6.77
7. C[C@@H]1CN(c2cc(=O)n(C)c3ccc(C#N)nc23)[C@@H](C)CN1C(c1ccccc1)c1ccccc1F (stereo partly drawn)	6.57
8. CC(C)[C@@H]1CN(c2cc(=O)n(C)c3ccc(C#N)nc23)CCN1C(c1ccc(Cl)cc1)c1ccc(Cl)cc1	5.11
9. C[C@@H]1CN(c2cc(=O)n(C)c3ccc(C#N)nc23)[C@@H](C)CN1Cc1ccc(F)cc1	7.82
10. C[C@@H]1CN(c2cc(=O)n(C)c3ccc(C#N)nc23)[C@@H](C)CN1C(c1ccc(F)cc1)c1cnccn1 (single isomer, unassigned) [Example 675]	5.34
11. CC(c1ccc(C2(C#N)CC2)cc1)N1C[C@H](C)N(c2cc(=O)n(C)c3ccc(C#N)nc23)C[C@H]1C (stereo partly drawn) [Example 1254]	5.72
12. CC(C)C(=O)C1CN(c2cc(=O)n(C)c3ccc(C#N)nc23)CCN1C(c1ccc(F)cc1)c1ccc(F)cc1 (single isomer, unassigned) [Example 87]	4.55

This collection of values is drawn from patent US10669272B2.
